The measured values listed here are drawn from ChEMBL document CHEMBL4321870.

Hi there, I'd appreciate the recorded pIC50 for every entry that follows.
# Test system: HepG2
# Procedure Summary: Antiproliferative activity against human HepG2 cells incubated for 72 hrs by MTT assay
# Format: functional, cell-based
# Condition: HepG2, 72 h
Formally, pIC50 is defined as -log10 of the concentration c, with c in mol/L.

Request: State the recorded pIC50 for this entry: COc1cc(C)c(Cl)c(O)c1C(=O)c1c(C=O)c(O)cc(O)c1CC=C(C)C
Response: 4.43

Request: Likewise for CC(C)=CCc1c(O)cc(O)c(C=O)c1C(=O)c1c(O)cc(C)c(Cl)c1O ?
Response: 4.64

Request: Likewise for O=c1[nH]cc(F)c(=O)[nH]1 ?
Response: 5.60
